# experimental system: LTD4 (Cavia porcellus, UniProt Q2NNR5)
# Construct: tracheal spiral strips of approximate dimensions 2 to 3 mm cross-sectional width
# Sequence (Q2NNR5 1-340): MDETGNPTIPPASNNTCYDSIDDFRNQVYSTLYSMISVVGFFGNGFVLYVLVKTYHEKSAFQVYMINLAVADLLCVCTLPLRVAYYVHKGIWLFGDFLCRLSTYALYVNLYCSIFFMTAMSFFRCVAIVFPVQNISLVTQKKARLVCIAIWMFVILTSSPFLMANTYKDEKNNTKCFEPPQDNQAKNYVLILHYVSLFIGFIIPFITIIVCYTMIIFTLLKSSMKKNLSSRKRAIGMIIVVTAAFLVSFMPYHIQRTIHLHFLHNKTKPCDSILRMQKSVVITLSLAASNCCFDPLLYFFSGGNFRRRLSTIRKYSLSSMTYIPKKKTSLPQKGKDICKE
# experiment description: inhibition of leukotriene (LTD4) induced contraction of guinea pig tracheal tissues in vitro
# particulars: stated as 'in this assay'; separate method not given
quantity name: Ki (nM)
Write it as a number; the unit nM goes unstated.

-- ask Indicate the recorded Ki value for this molecule: O=C(O)CCSC(CC(=O)O)c1ccccc1CCCCCCCc1ccc2ccc(Cl)cc2n1 (stereo not shown)
-- reply 7.7
